Target: Ras-related C3 botulinum toxin substrate 1 (Homo sapiens) (UniProt P63000)
Experiment: activated Rac1 mutant nucleotide-binding inhibitors – biochemical, multiplex, GST-Rac1 beads, Bodipy-FL-GTP, flow cytometry, dose response (AID 1339)
quantity_kind: EC50

chemical_structure	quantity_kind	meas_value
CC(=O)c1ccc(C#CC(=O)c2ccc([N+](=O)[O-])cc2)cc1	EC50	1.22 µM
Cc1ccccc1C(=O)Nc1ccc2c(C#N)c3nc4ccccc4nc3n2c1	EC50	0.889 µM

## Task Report EC50 for CS(=O)(=O)c1ccc(C(=O)OCC(=O)NC(=O)C2CCCCC2)cc1[N+](=O)[O-] tested on Ras-related C3 botulinum toxin substrate 1 (Homo sapiens) (UniProt P63000).
## Result 43.2 µM

## Task Report EC50 for O=C(O)c1cn(CCOc2ccccc2)c2ccccc12 tested on Ras-related C3 botulinum toxin substrate 1 (Homo sapiens) (UniProt P63000).
## Result 0.857 µM

## Task Report EC50 for O=C(Nc1nnc(-c2ccc3c(c2)OCCO3)o1)c1ccc(Cc2ccccc2)cc1 tested on Ras-related C3 botulinum toxin substrate 1 (Homo sapiens) (UniProt P63000).
## Result 10.2 µM

---

EC50 values, listed per item
Biological target: Ras-related C3 botulinum toxin substrate 1 (Homo sapiens) (UniProt P63000)
Assay: activated Rac1 mutant nucleotide-binding inhibitors – biochemical, multiplex, GST-Rac1 beads, Bodipy-FL-GTP, flow cytometry, dose response (AID 1339)

chemical_structure	EC50
O=C(c1nnsc1S(=O)(=O)c1ccc(Cl)cc1)N1CCOCC1	13.7 µM
O=C(O)c1cc(Sc2ccc(Cl)cc2)nc2ccccc12	69.4 µM
Cc1cc(OCCSc2nc3ccccc3n2CC(=O)O)ccc1Cl	25.1 µM
Cc1cc(C)c(C)c(C(=O)c2ccccc2C(=O)O)c1C	1.52 µM
COc1ccc(Cl)cc1NCc1sc(C(=O)O)cc1C	2.19 µM

## Task Entry under review: Cc1ccc(C(C)C)c(OCCSc2nc3ccccc3n2CC(=O)O)c1 . Reported EC50?
## Result 33.5 µM

---

Target: Ras-related C3 botulinum toxin substrate 1 (Homo sapiens) (UniProt P63000)
Test: activated Rac1 mutant nucleotide-binding inhibitors – biochemical, multiplex, GST-Rac1 beads, Bodipy-FL-GTP, flow cytometry, dose response (AID 1339)
pEC50: −log10 of the molar value.
Decision: pEC50 >= 5 yields Yes, all other cases yield No.

molecule	cat
Cc1ccc(-n2c(-c3cnccn3)n[nH]c2=S)c(Br)c1	No

## Task Test whether the molecule Cc1nn(Cc2ccccc2)c(Cl)c1C(=O)O records pEC50 of 5 or higher.
## Result No

## Task Test whether the molecule COc1ccc(OC)c(-c2c3cc(O)c(=O)cc-3oc3cc(O)c(O)cc23)c1 records pEC50 of 5 or higher.
## Result Yes

## Task Test whether the molecule O=C(CSc1ncnc2scc(-c3ccccc3)c12)N1CCN(Cc2ccc3c(c2)OCO3)CC1 records pEC50 of 5 or higher.
## Result No

## Task Test whether the molecule Cc1cc(C)cc(OCCSc2nc3ccccc3n2CC(=O)O)c1 records pEC50 of 5 or higher.
## Result No

## Task Test whether the molecule N#Cc1c(-c2ccccc2)nc(SCC(=O)Nc2ccccc2)[nH]c1=O records pEC50 of 5 or higher.
## Result No

## Task Test whether the molecule Cc1cc(C(=O)Oc2ccccc2C(=O)O)c(C)o1 records pEC50 of 5 or higher.
## Result Yes

## Task Test whether the molecule COC(=O)c1cccnc1SCCc1ccccc1 records pEC50 of 5 or higher.
## Result No

## Task Test whether the molecule Cc1ccc(C(C)C)c(OCCn2cc(C(=O)O)c3ccccc32)c1 records pEC50 of 5 or higher.
## Result Yes

## Task Test whether the molecule CNC(=S)N=Nc1c(O)[nH]c2ccccc12 records pEC50 of 5 or higher.
## Result No

## Task Test whether the molecule O=C(O)c1ccccc1NCc1c(Cl)cccc1Cl records pEC50 of 5 or higher.
## Result No

## Task Test whether the molecule OC(CNCCc1ccc(Cl)cc1)COc1ccc2ccccc2c1 (configuration not stated) records pEC50 of 5 or higher.
## Result No

## Task Test whether the molecule Cc1ccc(C)c(OCCn2cc(C(=O)O)c3ccccc32)c1 records pEC50 of 5 or higher.
## Result Yes

## Task Test whether the molecule CC(=O)c1c(C)[nH]c(C(=O)N2CCc3ccccc3C2)c1C records pEC50 of 5 or higher.
## Result Yes

## Task Test whether the molecule COc1cccc(CNCc2sc(C(=O)O)cc2C)c1 records pEC50 of 5 or higher.
## Result No

## Task Test whether the molecule O=C(O)/C=C/c1cn(Cc2ccccc2)nc1-c1cccs1 records pEC50 of 5 or higher.
## Result Yes

## Task Test whether the molecule Cc1ccccc1OCCn1c(C)c(C(=O)O)c2ccccc21 records pEC50 of 5 or higher.
## Result Yes

## Task Test whether the molecule Cc1ccc(Nc2cc(C(=O)O)c3ccccc3n2)cc1C records pEC50 of 5 or higher.
## Result Yes
